# target-under-test: UniProt P27487
# Sequence (P27487 whole entry): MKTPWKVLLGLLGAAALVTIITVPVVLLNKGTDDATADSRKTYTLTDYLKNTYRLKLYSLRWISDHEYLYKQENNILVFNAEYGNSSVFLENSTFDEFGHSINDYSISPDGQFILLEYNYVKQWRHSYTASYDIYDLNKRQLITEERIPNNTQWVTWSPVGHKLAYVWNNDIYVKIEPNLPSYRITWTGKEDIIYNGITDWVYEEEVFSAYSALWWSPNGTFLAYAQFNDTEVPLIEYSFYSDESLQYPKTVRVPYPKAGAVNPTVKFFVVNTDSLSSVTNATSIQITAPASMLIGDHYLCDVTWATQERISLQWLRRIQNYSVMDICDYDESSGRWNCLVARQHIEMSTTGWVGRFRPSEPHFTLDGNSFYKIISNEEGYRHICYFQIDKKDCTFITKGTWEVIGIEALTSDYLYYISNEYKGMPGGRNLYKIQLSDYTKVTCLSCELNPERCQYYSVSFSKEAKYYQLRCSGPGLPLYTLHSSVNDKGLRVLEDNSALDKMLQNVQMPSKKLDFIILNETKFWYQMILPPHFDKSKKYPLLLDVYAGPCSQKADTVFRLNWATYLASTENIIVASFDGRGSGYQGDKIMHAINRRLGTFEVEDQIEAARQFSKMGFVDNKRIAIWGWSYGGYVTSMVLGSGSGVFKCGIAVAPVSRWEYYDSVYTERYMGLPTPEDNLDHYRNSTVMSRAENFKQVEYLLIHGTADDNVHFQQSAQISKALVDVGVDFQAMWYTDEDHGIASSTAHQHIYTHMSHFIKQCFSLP
# assay-protocol: DPP4 activity assay (DPP4 inhibitor screening assay kit, Cayman);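 further: fluorescence read at excitation 360 nm and emission 460 nm after the enzyme reaction ran 30 min at 37 °C in a 96-well plate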
# Type: biochemical
# Design: purchased Cayman Chemical, Ann Arbor, MI, USA
# test-parameters: 0.5 h, 10 µM; control mean 100.0; mean of Exp 1-3; read-out: DPP4 activity in library screen, Mean
observable: remaining activity at 10 µM (%)
Quick reminder: number only, in %, skip the unit.

compound: O=c1c(O)c(-c2ccc(O)c(O)c2)oc2cc(O)ccc12
observable: remaining activity at 10 µM
result-value: 66

compound: C[C@H]1[C@H](OC(=O)CCC(=O)O)O[C@@H]2O[C@@]3(C)CC[C@H]4[C@H](C)CC[C@@H]1[C@@]24OO3 [Artesunate]
observable: remaining activity at 10 µM
result-value: 93.7

compound: C[C@H]1[C@@H](O)O[C@@H]2O[C@@]3(C)CC[C@H]4[C@H](C)CC[C@@H]1[C@@]24OO3 [Dihydroartemisinin (DHA), Dihydroartemisinin]
observable: remaining activity at 10 µM
result-value: 92.1

compound: CC(C)Oc1ccc2c(=O)c(-c3ccccc3)coc2c1
observable: remaining activity at 10 µM
result-value: 94.5

compound: OC[C@H]1O[C@@H](Oc2ccc(O)cc2)[C@H](O)[C@@H](O)[C@@H]1O
observable: remaining activity at 10 µM
result-value: 96.1

compound: C=C1C(=O)[C@]23[C@H](O)[C@H]1CC[C@H]2[C@@]12CO[C@]3(O)[C@@H](O)[C@@H]1C(C)(C)CC[C@@H]2O
observable: remaining activity at 10 µM
result-value: 87.8

compound: O=C1c2c(O)cccc2C([C@@H]2O[C@H](CO)[C@@H](O)[C@H](O)[C@H]2O)c2cc(CO)cc(O)c21 (some centres unmarked)
observable: remaining activity at 10 µM
result-value: 77.9

compound: Cc1coc2c1C(=O)C(=O)c1c-2ccc2c1CCCC2(C)C
observable: remaining activity at 10 µM
result-value: 59

compound: N[C@@H](Cc1c[nH]c2ccc(O)cc12)C(=O)O [5-hydroxytryptophan (5-HTP), 5-hydroxytryptophan]
observable: remaining activity at 10 µM
result-value: 88.8

compound: CNCC(O)c1ccc(O)cc1 (centres unmarked) [Synephrine]
observable: remaining activity at 10 µM
result-value: 87.8

IN: Which remaining activity at 10 µM reading was recorded for the compound N#C[C@H](O[C@@H]1O[C@H](CO[C@@H]2O[C@H](CO)[C@@H](O)[C@H](O)[C@H]2O)[C@@H](O)[C@H](O)[C@H]1O)c1ccccc1 ?
OUT: 94.3

IN: Which remaining activity at 10 µM reading was recorded for the compound O=C1CCC[C@@H]2[C@H]3CCC[N+]4([O-])CCC[C@@H](CN12)[C@@H]34 (some centres unmarked) ?
OUT: 97.6

IN: Which remaining activity at 10 µM reading was recorded for the compound COc1ccc(-c2cc(=O)c3c(O)cc(O[C@@H]4O[C@H](CO[C@@H]5O[C@@H](C)[C@H](O)[C@@H](O)[C@H]5O)[C@@H](O)[C@H](O)[C@H]4O)cc3o2)cc1O ?
OUT: 70.1

IN: Which remaining activity at 10 µM reading was recorded for the compound COc1ccc(-c2oc3c(CC=C(C)C)c(O[C@@H]4O[C@H](CO)[C@@H](O)[C@H](O)[C@H]4O)cc(O)c3c(=O)c2O[C@@H]2O[C@@H](C)[C@H](O)[C@@H](O)[C@H]2O)cc1 ?
OUT: 76.4
